Target: T1, PSMA Fab
T1 construct: Biotinylated and captured on neutravidin plates in the phage ELISA; also called Anti-PSMA Fab; 006 PSMA Fab
Assay: clonal phage ELISA on biotinylated PSMA Fab captured on neutravidin plates, anti-M13-HRP detection; blocking buffer alone
Where no end group is shown, it is not given here.
assay.readout: Phage binding ELISA signal, Anti-PSMA Fab
Answers are plain numbers.

Task: Read off the recorded Phage binding ELISA signal, Anti-PSMA Fab for YEKWCTPAWMCDFV (cysteine pairing not given here; also: fused to phage pIII, linker and fusion site not given here, Clonal phage of the Peptide-180 library, tested as crude supernatant; not shown: pIII coat protein of the bacteriophage to which the peptide is fused) [Phage-2528]
Output: 1.17

Moving on to the next binder.
Task: Read off the recorded Phage binding ELISA signal, Anti-PSMA Fab for PTKWCIPEWMCVES (cysteine pairing not given here; also: fused to phage pIII, linker and fusion site not given here, Clonal phage of the Peptide-180 library, tested as crude supernatant; not shown: pIII coat protein of the bacteriophage to which the peptide is fused) [Phage-2541]
Output: 1.15
